Ref: ChEMBL document CHEMBL1140624

- Test system: M19 melanoma cell line (human)
- Assay Name: Cytotoxicity against human M19 melanoma cells
Assay Endpoint: IC50 (µg/mL)
One number for each entry, in µg/mL.

Examples with their reported IC50 follow.
I'd like to know its IC50. The compound in question is "CC(=O)O[C@H]1C(=O)[C@@]2(C)[C@H]([C@H](OC(=O)c3ccccc3)[C@]3(O)C[C@H](OC(=O)[C@H](OC(=O)OC/C=C/c4ccc([N+](=O)[O-])cc4)[C@@H](NC(=O)c4ccccc4)c4ccccc4)C(C)=C1C3(C)C)[C@]1(OC(C)=O)CO[C@@H]1C[C@@H]2O"
0.384

Try the compound "CC(=O)O[C@H]1C(=O)[C@@]2(C)[C@H]([C@H](OC(=O)c3ccccc3)[C@]3(O)C[C@H](OC(=O)[C@H](OC(=O)NCCNC(=O)[C@H](CCCCN)NC(=O)[C@H](Cc4ccccc4)NC(=O)[C@@H](C)N)[C@@H](NC(=O)c4ccccc4)c4ccccc4)C(C)=C1C3(C)C)[C@]1(OC(C)=O)CO[C@@H]1C[C@@H]2O.Cl"
0.045

Consider now this further compound.
I'd like to know its IC50. The compound in question is "CC(=O)O[C@H]1C(=O)[C@@]2(C)[C@H]([C@H](OC(=O)c3ccccc3)[C@]3(O)C[C@H](OC(=O)[C@H](OC(=O)OCc4ccc(NC(=O)[C@H](CCCCN)NC(=O)[C@H](CC(C)C)NC(=O)[C@H](N)C(C)C)cc4)[C@@H](NC(=O)c4ccccc4)c4ccccc4)C(C)=C1C3(C)C)[C@]1(OC(C)=O)CO[C@@H]1C[C@@H]2O.Cl"
0.02
